Source of measurements: patent US20240343761A1

- Assay Remarks: Rat plasma stability (half-life in vitro)
- Format: in vitro ADME
- Condition Set: male, Sprague-Dawley, rat, plasma, t1/2 in rat plasma
Reported Metric: half-life at […]

The compound listed as CCCC[C@H](NC(=O)[C@@H]1CCCN1C(=O)CNC(=O)[C@H](CCCCN)NC(=O)[C@@H]1CC=CC[C@H](NC(=O)[C@H](CCCNC(=N)N)NC(=O)[C@@H]2CCC(=O)N2)C(=O)N[C@@H](CCCNC(=N)N)C(=O)N[C@@H](CC(C)C)C(=O)N[C@@H](CO)C(=O)N1)C(=O)N1CCC[C@H]1C(=O)N[C@@H](Cc1ccccc1)C(=O)O [Compound 97, Pyr-R-c[X-R-L-S-X]c-K-G-P-Nle-P-F, reference compound] shows half-life at […] equal to 2 to 5 h
